The reported measurements were obtained from patent US8148578B2.

Experiment: Oral pharmacokinetics of naratriptan in rats, alone or combined with an absorption enhancer carrier
Type: in vivo, Sprague-Dawley rats
Conditions: Sprague-Dawley, rat; naratriptan in plasma; fasted male rats, single oral dose, Nar 10 mg/kg, carrier 200 mg/kg, n=5

- compound: "CNS(=O)(=O)CCc1ccc2[nH]cc(C3CCN(C)CC3)c2c1 [Naratriptan]"
  unit.name: "min"
  Tmax: 27

###

Assay: Oral pharmacokinetics of naratriptan in rats, alone or combined with an absorption enhancer carrier
Format: in vivo, Sprague-Dawley rats
Settings: Sprague-Dawley, rat; naratriptan in plasma; fasted male rats, single oral dose, Nar 10 mg/kg, carrier 200 mg/kg, n=5

- smiles.repr: "CNS(=O)(=O)CCc1ccc2[nH]cc(C3CCN(C)CC3)c2c1"
  Cmax: "1050 ng/mL"
